Measured values drawn from patent US20150315188A1 for this set.

experiment: Stability in the presence of rat hepatocytes
Type: in vitro ADME, Sprague Dawley rat
stated_conditions: male, Sprague Dawley, rat, cryopreserved hepatocytes, pH 7.4, rat hepatocytes, 37° C., average of duplicates, ^a = 0-120 minute time points, read-out: T1/2 Rat
Please provide measured half-life at 5 µM for the entries that follow.

Observe how each entry below is paired with its result.
- compound: "Cc1cc(F)c2c(c1)c1c(n2CC(C)(O)c2cccnc2)CCN2CCCC12 (centres unmarked) [Compound No. 79a]"
  half-life at 5 µM: "3.5 h"
- compound: "Cc1ccc2c(c1)c1c(n2CC(O)c2ccncc2)CCN2CCCC12 (single isomer, unassigned) [Compound No. 178d]"
  half-life at 5 µM: "> 4 h"
- compound: "Cc1ccc2c(c1)c1c(n2C[C@@H](OC2CCCC2)c2ccncc2)CCN2CCC[C@H]12"
  half-life at 5 µM: "0.767 h"
- compound: "Cc1cc(Cl)c2c(c1)c1c(n2CC(C)(O)c2ccncc2)CCN2CCCC12 (single isomer, unassigned) [91a]"
  half-life at 5 µM: "2.82 h"

[in] Identify measured half-life at 5 µM corresponding to Cc1cc2c3c(n(CC(C)(O)c4ccncc4)c2cc1Cl)CCN1CCCC31 (single isomer, unassigned) [50a]
[out] 2.43 h

* * *

Please provide measured Percentage inhibition of ligand binding, Adrenergic α2B (10 nM) for the entries that follow.
experimental_system: Human adrenergic α2B receptor (Homo sapiens, UniProt P18089)
Sequence (P18089 whole entry): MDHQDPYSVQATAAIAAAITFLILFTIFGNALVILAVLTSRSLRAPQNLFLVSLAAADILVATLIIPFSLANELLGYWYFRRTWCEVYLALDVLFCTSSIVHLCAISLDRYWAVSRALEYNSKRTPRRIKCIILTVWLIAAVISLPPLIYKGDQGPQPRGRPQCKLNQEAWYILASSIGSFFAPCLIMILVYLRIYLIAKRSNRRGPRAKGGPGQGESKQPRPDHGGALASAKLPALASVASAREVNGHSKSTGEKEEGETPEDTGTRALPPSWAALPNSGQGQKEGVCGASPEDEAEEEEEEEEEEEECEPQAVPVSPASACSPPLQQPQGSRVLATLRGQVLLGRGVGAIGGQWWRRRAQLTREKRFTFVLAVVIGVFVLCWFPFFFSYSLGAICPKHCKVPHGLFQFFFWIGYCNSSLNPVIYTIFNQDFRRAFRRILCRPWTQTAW
experiment: Radioligand binding, adrenergic α2B (Protocol Group B)
Parameters: purchased Milipore (Millipore)
stated_conditions: 10 nM compound; Protocol Group B; 0.01 µM
Protocol: To evaluate the activity of compounds in radioligand binding assays, Human adrenergic α2B receptor obtained from recombinant cell membrane from Milipore. Binding experiments were carried out in Tris-HCl buffer (50 mM Tris-HCl buffer, pH 7.4, 5 mM Mgcl2, 1 mM Cacl2, 0.2% BSA) as recommended by Milipore. […] Non-specific binding was estimated in the presence of 10 μM Rauwolscine. […] Compounds were screened at various concentrations, using 1% DMSO as vehicle. […]
Numbers only, in %.

Observe how each entry below is paired with its result.
- compound: "Cc1cc(F)cc2c3c(n(CC(C)(O)c4ccncc4)c12)CC1CCCN1C3 (single isomer, unassigned) [78b]"
  experimental_system: "Human adrenergic α2B receptor (Homo sapiens, UniProt P18089)"
  measurement: 0
- compound: "Cc1cc(Cl)c2c(c1)c1c(n2CC(C)(O)c2ccncc2)CCN2CCCC12 (single isomer, unassigned) [91b]"
  experimental_system: "Human adrenergic α2B receptor (Homo sapiens, UniProt P18089)"
  measurement: 95
- compound: "CC(O)(Cn1c2c(c3cc(Cl)cc(F)c31)C1CCCN1CC2)c1cccnc1 (single isomer, unassigned) [53c]"
  experimental_system: "Human adrenergic α2B receptor (Homo sapiens, UniProt P18089)"
  measurement: "−4"

// each listed compound needs a value for Percentage inhibition of ligand binding, Adrenergic α2B (10 nM)
1. OC(Cn1c2c(c3cc(F)ccc31)C1CCCN1CC2)c1ccncc1 (single isomer, unassigned) [18d]
2. Cc1ccc2c(c1F)c1c(n2CC(C)(O)c2cccnc2)CCN2CCCC12 (single isomer, unassigned) [87d]
3. Cc1ccc2c(c1)c1c(n2CC(C)(O)c2cnc3ccccc3c2)CCN(C)C1 (centres unmarked) [compound 32]
4. Cc1ccc2c(c1)c1c(n2CC(O)c2ccncc2)CNC2CCCC12 (single isomer, unassigned) [34b]
5. Cc1ccc2c(c1)c1c(n2CC(C)(O)c2cccnc2)CC2CCCN2C1 (centres unmarked) [38a]

[out]
[11, 87, 14, 15, "−2"]
